The reported measurements were obtained from ChEMBL document CHEMBL1201862.

Test system: OVCAR-4
assay: NCI tumour cell line growth inhibition, 48 h
Active and inactive are the calls of the source. No stated cut-off is given here; in the data, active = GI50 up to about 1.1 µM and inactive = higher.
Could you please pick one outcome from this set? YES for active, NO for inactive

Would you please look over these solved cases?
Cc1ccnc(NS(=O)(=O)c2ccc(NC3=CC(=O)C(=O)c4ccccc43)cc2)n1: NO
CC1OC1P(=O)(O)O (stereo unspecified): NO
CC(C)(C)[Si](C)(C)OCC1CCC(n2cnc3c(=O)[nH]cnc32)O1 (stereo unspecified): NO
CC1(C)OC(CP(c2ccccc2)c2ccccc2)C(CP(c2ccccc2)c2ccccc2)O1 (stereo unspecified): YES
CN(C)c1ncnc2c1ncn2C1C=CC(COS(N)(=O)=O)C1 (stereo unspecified): NO
C/C(=N\O)c1ccc(OCc2cc(C(F)(F)F)cc(C(F)(F)F)c2)cc1: NO

input: Which result was noted for this compound in the test: CC1(c2ccccc2)CCN(C2CC2)CO1 (stereo unspecified)
output: NO

input: Any idea what this test logged for `CO[C@@H]1C[C@H]2[C@@H]3CC[C@H]([C@@H](C)CO)[C@@]3(C)CC[C@@H]2[C@@]2(C)CC[C@H]3C[C@]312` ?
output: NO

* * *

Listing of recorded GI50 by entry.
System: OVCAR-4
assay: NCI tumour cell line growth inhibition, 48 h
Calls of active or inactive are those of the source. Cut-off read from the data, not from the text of the source: active = GI50 up to about 1.1 µM and inactive = higher.

CCN1N=CSC12C(=O)N(c1ccccc1)C(=O)N2c1ccccc1 (stereo unspecified): > 100 µM (inactive)
Cc1ccc([S+]([O-])CC(CF)OCn2cc(C)c(=O)[nH]c2=O)cc1 (stereo unspecified): > 100 µM (inactive)
CCOC(=O)C(C(=O)c1ccccc1)=C1NCCN1: > 100 µM (inactive)
COc1ccc2c(c1OC)C[C@@H]1c3c(cc4c(c3-2)OCO4)CCN1C: 25.4 µM (inactive)
Cc1ccccc1NC(=N)Nc1ccccc1C: > 100 µM (inactive)

Next compound, GI50 to be filled in.
input: Give recorded GI50. C[C@]12CCCC(=O)C1C[C@H](C(=O)O)CC2 (stereo partly specified)
output: > 100 µM (inactive)

* * *

Tested on: UO-31
assay: NCI tumour cell line growth inhibition, 48 h
The source made the active and inactive calls. Cut-off read from the data, not from the text of the source: active = GI50 up to about 1.1 µM and inactive = higher.
endpoint label: GI50

Please review the following examples before continuing.
CCN(CC)c1ccc2cc(C(=O)NCc3ccccc3)c(=N)oc2c1: > 26.6 µM (inactive)
COc1cc(O)c2c(=O)c(OC)c(-c3ccc4c(c3)OCO4)oc2c1OC: > 50 µM (inactive)
Cc1c2cnccc2c(C)c2c1c1ccccc1n2CC1CO1 (stereo not given): 1.42 µM (inactive)
N#CCCN(c1ccc(C=O)cc1)S(=O)(=O)c1ccccc1: > 100 µM (inactive)
CSC1(C)CC2C(CC1N1CCOCC1)C2(C)C (stereo not given): > 100 µM (inactive)
Cc1nnc(Sc2nc(C#N)c(C#N)nc2Sc2nnc(C)s2)s1: 3.35 µM (inactive)

input: Identify measured GI50 corresponding to CC(=O)Oc1cc(C)c2c(c1OC(C)=O)CC1(O2)[C@@H](C)CCC2[C@@]3(C)CC[C@H](OC(C)=O)C(C)(C)C3CC[C@]21C (stereo not given in full)
output: 1.99 µM (inactive)

input: Please indicate GI50 recorded for CCOC(=O)c1cc(C2(OC)CCN(Cc3ccccc3)C2=O)c(-c2cc(C)no2)[nH]1 (stereo not given)
output: > 100 µM (inactive)

input: Identify GI50 associated with the compound `Clc1cc(Cc2cc(Cl)c(Cl)c3c2OCOC3)c2c(c1Cl)COCO2`
output: 34.6 µM (inactive)

input: Check the records and state GI50 for `Cc1cc2c(cc1C(=O)c1ccc(N)cc1)OCO2`
output: 77.8 µM (inactive)
